Data provenance is patent US20220324770A1.

# Tested on: Dahlen soil
# TEST_DETAILS: Soil microcosm incubation (nitrification of applied ammonium), Dahlen soil
# DETAILS: Table 4, Dahlen soil pH 7.3, 35° C., day 21; 10 mol %
MEASUREMENT_KIND: Nitrified NH4+—N (%) Day 21

> print(dat)
                                   molecule       result
1                           CCCc1cn(CCC)nn1  29.8 ± 1.2%
2  Cc1c[nH]nc1C.O=P(O)(O)O [DMPP, 3,4-dimethylpyrazole phosphate, reference compound]  48.3 ± 6.4%
3                         C#CCCn1cc(CCC)nn1  38.0 ± 2.8%
4                         CCCCc1cn(CCCC)nn1  29.6 ± 3.6%
5                          CCCCn1cc(CCC)nn1  34.2 ± 2.4%
